The entries below are paired with their reported Kd.
Molecular target: HIV-1 Nef SF2 (Human immunodeficiency virus type 1 group M subtype B)
Construct: made in house
Sequence (P03407 whole entry): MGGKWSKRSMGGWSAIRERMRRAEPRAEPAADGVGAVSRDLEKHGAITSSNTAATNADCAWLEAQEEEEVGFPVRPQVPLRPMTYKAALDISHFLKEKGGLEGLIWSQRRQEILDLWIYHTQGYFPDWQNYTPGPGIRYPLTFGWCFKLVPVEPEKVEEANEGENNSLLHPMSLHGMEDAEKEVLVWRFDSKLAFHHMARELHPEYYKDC
Assay: biochemical
Format: binding
Settings: two-step induced-fit model, Reichert SPR, read-out: Reichert SPR Nef SF2 (M) two-step fitting

# given-smiles, Kd, M
data = [
    ("CC(C)OC(=O)N1CCC(c2nn(-c3nc4cc(Cl)ccc4[nH]3)c(O)c2CCC2CCOCC2)CC1", "1.37e-07"),
    ("Oc1c(CCc2ccc(F)cc2)c(-c2ccc(C(F)(F)F)cc2)nn1-c1nc2cccnc2[nH]1", "3.69e-08"),
    ("Oc1c(CCc2ccc(F)cc2)c(C2CC2)nn1-c1nc2cccnc2[nH]1", "2.91e-06"),
]

====

Target: HIV-1 NefNL4-3 (Human immunodeficiency virus type 1 group M subtype B, UniProt P03406, A33V/T15A/T51N/V11I)
Experiment: Surface plasmon resonance binding to recombinant full-length Nef (NL4-3)
Settings: read-out: Nef NL4-3 Binding, SPR 1:1 or 2-site fitting KD2; Table 1; 2-site fit, second component

# compound, display-unit, Kd
rows = [
    ("CC(C)OC(=O)N1CCC(c2nn(-c3nc4ccccc4[nH]3)c(O)c2CCC2CCOCC2)CC1 [Compound I-722]", "µM", 7.2),
    ("O=C1CCCN1CCc1c(-c2ccc(C(F)(F)F)cc2)nn(-c2nc3ccccc3[nH]2)c1O [Compound I-132]", "µM", 8.01),
    ("Oc1c(CCC2CCNCC2)c(-c2ccc(C(F)(F)F)cc2)nn1-c1nc2ccccc2[nH]1 [Compound I-552]", "µM", 16.5),
    ("CC(C)(C)OC(=O)N1CCC(c2nn(-c3nc4cc(F)c(F)cc4[nH]3)c(O)c2CCc2ccc(F)cc2)CC1 [Compound I-219]", "µM", 3.29),
    ("COC(=O)N1CCC(c2nn(-c3nc4ccccc4[nH]3)c(O)c2CCc2ccc(F)cc2)CC1 [Compound I-740]", "µM", 3.38),
    ("Nc1ccc(S(=O)(=O)N2CCC(c3nn(-c4nc5ccccc5[nH]4)c(O)c3CCc3ccc(F)cc3)CC2)cc1 [Compound I-749]", "µM", 0.755),
    ("CC(C)CS(=O)(=O)N1CCC(c2nn(-c3nc4ccccc4[nH]3)c(O)c2CCc2ccc(F)cc2)CC1 [Compound I-750]", "µM", 0.000572),
    ("CC(C)(C)OC(=O)N1CCC(c2nn(-c3nc4cccnc4[nH]3)c(O)c2CCc2ccc(F)cc2)CC1 [Compound I-220]", "µM", 3.82),
    ("O=C(c1c(O)cc(O)cc1O)N1CCCC1c1nn(-c2nc3ccccc3[nH]2)c(O)c1CCc1ccc(F)cc1 (centres unmarked) [Compound I-762]", "µM", 7.46),
    ("Oc1c(CCc2ccc(F)cc2)c(-c2ccc(C(F)(F)F)cn2)nn1-c1nc2cc(F)ccc2[nH]1 [Compound I-167]", "µM", 1.74),
    ("Cc1ccn(CCc2c(-c3ccc(C(F)(F)F)cc3)nn(-c3nc4ccccc4[nH]3)c2O)n1 [Compound I-128]", "µM", 4.33),
    ("Oc1c(CCC2CCOCC2)c(-c2cccc(F)c2)nn1-c1nc2cccnc2[nH]1 [Compound I-304]", "µM", 40.3),
    ("Oc1c(CCC2CCNCC2)c(C2CC2)nn1-c1nc2cc(Cl)ccc2[nH]1 [Compound I-554]", "µM", 2.13),
    ("CC(C)OC(=O)N1CCC(c2nn(-c3nc4cc(Cl)ccc4[nH]3)c(O)c2CCC2CCOCC2)CC1 [Compound I-701]", "µM", 4.02),
    ("O=C(OCc1ccccc1)N1CCC(c2nn(-c3nc4cccnc4[nH]3)c(O)c2CCc2ccc(F)cc2)CC1 [Compound I-306]", "µM", 5.43),
    ("CC(=O)N1CCC(c2nn(-c3nc4ccccc4[nH]3)c(O)c2Cc2ccc(F)c(F)c2)CC1 [Compound I-744]", "µM", 7.28),
    ("O=C(NCC1CC1)c1ccc(-c2nn(-c3nc4ccccc4[nH]3)c(O)c2CCc2ccc(F)cc2)cc1 [Compound I-1201]", "µM", 2.51),
    ("O=C(c1ccc(F)cc1)N1CCC(CCc2c(C3CC3)nn(-c3nc4cc(Cl)ccc4[nH]3)c2O)CC1 [Compound I-710]", "µM", 9.78),
    ("O=C(c1ccoc1)N1CCC(c2nn(-c3nc4ccccc4[nH]3)c(O)c2CCc2ccc(F)cc2)CC1 [Compound I-737]", "µM", 4),
    ("Oc1c(CCC2CCN(CC(F)(F)F)CC2)c(-c2ccc(C(F)(F)F)cc2)nn1-c1nc2ccccc2[nH]1 [Compound I-1006]", "µM", 15.1),
    ("CS(=O)(=O)c1ccc(-c2nn(-c3nc4cc(Cl)ccc4[nH]3)c(O)c2CCC2CCOCC2)cc1 [Compound I-168]", "µM", 4.97),
    ("Oc1c(CCc2ccc(F)cc2)c(-c2ccc(C(F)(F)F)cn2)nn1-c1nc2ccccc2[nH]1 [Compound I-119]", "µM", 6.83),
    ("Oc1c(CCc2ccc(F)cc2)c(-c2cccnc2)nn1-c1nc2ccccc2[nH]1 [Compound I-121]", "µM", 2.61),
    ("Oc1c(CCc2ccc(F)cc2)c(C2CCC2)nn1-c1nc2ccccc2[nH]1 [Compound I-129]", "µM", 16.8),
    ("Oc1c(CCc2ccc(F)cc2)c(CNCc2ccncc2)nn1-c1nc2ccccc2[nH]1 [Compound I-810]", "µM", 3.19),
    ("CC(=O)N1CCCC(c2nn(-c3nc4ccccc4[nH]3)c(O)c2CCc2ccc(F)cc2)C1 (centres unmarked) [Compound I-754]", "µM", 7.32),
    ("O=C(C1CCOC1)N1CCC(c2nn(-c3nc4ccccc4[nH]3)c(O)c2CCc2ccc(F)cc2)CC1 (centres unmarked) [Compound I-736]", "µM", 1.94),
    ("O=C(C1CCC(O)CC1)N1CCC(c2nn(-c3nc4ccccc4[nH]3)c(O)c2CCc2ccc(F)cc2)CC1 (centres unmarked) [Compound I-735]", "µM", 2.8),
    ("Oc1c(CCc2ccc(F)cc2)c(C2CCCN(CC(F)(F)F)C2)nn1-c1nc2ccccc2[nH]1 (centres unmarked) [Compound I-1002]", "µM", 1.71),
]

====

System: TZM-bl cell line
Assay type: cell-based
Conditions: human, 1 μM
measured-metric: Percent Viability @ 1 μM (TZM-bl cells) (%)

# compound, measured-metric, display-unit, value-measured
data = [
    ("CC(C)(C)OC(=O)N1CCC(c2nn(-c3nc4cccnc4[nH]3)c(O)c2CCc2ccc(F)cc2)CC1", "Percent Viability @ 1 μM (TZM-bl cells)", "%", 103.6),
    ("CS(=O)(=O)c1cccc(-c2nn(-c3nc4cccnc4[nH]3)c(O)c2CCC2CCOCC2)c1", "Percent Viability @ 1 μM (TZM-bl cells)", "%", 96.8),
    ("CS(=O)(=O)c1ccc(-c2nn(-c3nc4ccccc4[nH]3)c(O)c2CCC2CCOCC2)cc1", "Percent Viability @ 1 μM (TZM-bl cells)", "%", 98.5),
    ("CC(C)(C)OC(=O)N1CCC(Cc2nn(-c3nc4ccccc4[nH]3)c(O)c2CCc2ccc(F)cc2)C1 (stereo not drawn)", "Percent Viability @ 1 μM (TZM-bl cells)", "%", 90.6),
    ("Oc1c(CCc2ccccn2)c(-c2ccc(C(F)(F)F)cn2)nn1-c1nc2ccccc2[nH]1", "Percent Viability @ 1 μM (TZM-bl cells)", "%", 98.5),
    ("Oc1c(CCC2CCOCC2)c(-c2ccc(C(F)(F)F)cc2)nn1-c1nc2ccccc2[nH]1", "Percent Viability @ 1 μM (TZM-bl cells)", "%", 80.8),
    ("CC(C)(C)OC(=O)N1C[C@@H]2[C@H](C1)[C@H]2c1nn(-c2nc3ccccc3[nH]2)c(O)c1CCc1ccc(F)cc1", "Percent Viability @ 1 μM (TZM-bl cells)", "%", 100.1),
    ("O=C1NC(=O)C(CC(=O)N2CCC(c3nn(-c4nc5ccccc5[nH]4)c(O)c3CCc3ccc(F)cc3)CC2)N1 (stereo not drawn)", "Percent Viability @ 1 μM (TZM-bl cells)", "%", 100.4),
    ("CCOC(=O)N1CCC(c2nn(-c3nc4ccccc4[nH]3)c(O)c2CCC2CCOCC2)CC1", "Percent Viability @ 1 μM (TZM-bl cells)", "%", 92.2),
    ("O=C(c1nn(-c2nc3ccccc3[nH]2)c(O)c1CCc1ccc(F)cc1)N1CCCCC1", "Percent Viability @ 1 μM (TZM-bl cells)", "%", 109.7),
    ("Oc1c(CCc2ccc(F)cc2)c(CCCc2ccc(F)cc2)nn1-c1nc2cccnc2[nH]1", "Percent Viability @ 1 μM (TZM-bl cells)", "%", 98.2),
    ("O=C(c1ccccn1)N1CCC(c2nn(-c3nc4ccccc4[nH]3)c(O)c2CCc2ccc(F)cc2)CC1", "Percent Viability @ 1 μM (TZM-bl cells)", "%", 95.1),
    ("Oc1c(CC2CCOCC2)c(-c2ccc(F)cc2)nn1-c1nc2cccnc2[nH]1", "Percent Viability @ 1 μM (TZM-bl cells)", "%", 96.7),
    ("Oc1c(CCc2ccc(F)cc2)c(CNCc2cccnc2)nn1-c1nc2ccccc2[nH]1", "Percent Viability @ 1 μM (TZM-bl cells)", "%", 100.7),
    ("Oc1c(CCc2ccc(F)cc2)c(C2CCNCC2)nn1-c1nc2ccc(Cl)cc2[nH]1", "Percent Viability @ 1 μM (TZM-bl cells)", "%", 90.7),
]
